Examples of molecules with documented pIC50 follow.
tested on: HepG2; assay: Growth inhibition of doxorubicin resistant human HepG2 cells after 72 hrs by MTT assay; format: functional, cell-based; conditions: HepG2, 72 h
Scale explanation: pIC50 corresponds to minus log10 of a concentration expressed in moles per litre.

CC[C@]1(O)C[C@@H]2CN(CCc3c([nH]c4ccccc34)[C@@](C(=O)OC)(c3cc4c(cc3OC)N(C)[C@H]3[C@@](O)(C(=O)OC)[C@H](OC(C)=O)[C@]5(CC)C=CCN6CC[C@]43[C@@H]65)C2)C1 [VINBLASTINE] ... 6.36
CC(=O)O[C@H]1C(=O)[C@@]2(C)[C@H]([C@H](OC(=O)c3ccccc3)[C@]3(O)C[C@H](OC(=O)[C@H](O)[C@@H](NC(=O)c4ccccc4)c4ccccc4)C(C)=C1C3(C)C)[C@]1(OC(C)=O)CO[C@@H]1C[C@@H]2O [PACLITAXEL] ... 5.38
COc1ccc(/C=C/C(=O)OC2c3c(ccc4ccc(=O)oc34)OC(C)(C)C2OC(=O)/C=C/c2ccc(OC)cc2)cc1 (racemic) ... 4.14
COc1ccc(/C=C/C(=O)OC2c3c(ccc4ccc(=O)oc34)OC(C)(C)C2OC(=O)/C=C/c2ccc(OC)c(OC)c2)cc1OC (racemic) ... 4.12

Next, consider the following molecule.
stdin: Given COc1ccc(CC(N)C(=O)N[C@H]2[C@@H](O)[C@H](n3cnc4c(N(C)C)ncnc43)O[C@@H]2CO)cc1 (single isomer, unassigned) [PUROMYCIN] , state its recorded pIC50.
stdout: 4.08

Hello, the source for this data is ChEMBL document CHEMBL1143069, in case you need it.
